procedure.text: Cardioprotective effect in Langendorff perfused guinea pig spontaneously beating […] assessed as intraventicular conduction time at 0.001 uM (RVb = 19 to 24 +/- 1 to 2 ms)
Assay type: functional
protocol.conditions: Cavia porcellus
intraventricular conduction time vs 20 ms: less than gives True; not less than gives False.

Please determine if Cc1cccc(C)c1NCCSC[C@@H]1CCCN2CCCC[C@H]12 is below 20 ms in terms of intraventricular conduction time. False

Please determine if Cc1cccc(C)c1NC(=O)CSC[C@@H]1CCCN2CCCC[C@H]12 [LUPINYLTHIOACETYLANILIDE] is below 20 ms in terms of intraventricular conduction time. False

Please determine if Cc1cc(C(=O)c2ccccc2)ccc1NC(=O)C[C@@H]1CCCN2CCCC[C@H]12 is below 20 ms in terms of intraventricular conduction time. False

Further cases:
Please determine if Cc1cccc(C)c1NCC[C@@H]1CCCN2CCCC[C@H]12 is below 20 ms in terms of intraventricular conduction time. True

Please determine if C=C[C@H]1CN2CC[C@H]1C[C@@H]2[C@@H](O)c1ccnc2ccc(OC)cc12 [QUINIDINE] is below 20 ms in terms of intraventricular conduction time. False

These measurements were taken from ChEMBL document CHEMBL1177711.
